Recorded max response by entry
- Target Entity: Retinoic acid receptor RXR-alpha (Homo sapiens) (UniProt P19793)
- Sequence (P19793 whole entry, looked up): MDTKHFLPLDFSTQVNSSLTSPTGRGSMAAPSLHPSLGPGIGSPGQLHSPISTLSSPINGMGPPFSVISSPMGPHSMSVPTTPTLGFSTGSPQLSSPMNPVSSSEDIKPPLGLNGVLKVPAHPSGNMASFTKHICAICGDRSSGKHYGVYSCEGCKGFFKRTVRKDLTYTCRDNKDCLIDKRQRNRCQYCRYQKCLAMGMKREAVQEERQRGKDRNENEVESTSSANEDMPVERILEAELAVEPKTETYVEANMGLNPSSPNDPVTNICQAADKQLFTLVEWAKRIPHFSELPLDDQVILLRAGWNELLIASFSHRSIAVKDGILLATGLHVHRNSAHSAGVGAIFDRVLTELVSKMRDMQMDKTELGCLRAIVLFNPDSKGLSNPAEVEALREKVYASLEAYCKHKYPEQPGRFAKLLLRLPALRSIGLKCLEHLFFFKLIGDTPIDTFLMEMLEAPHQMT
- Protocol Text: qHTS assay for small molecule antagonists of retinoid X receptor alpha signaling (AID 588546);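 also: cells stimulated with 9-cis-retinoic acid as agonist; % is scaled to controls: 0 for no effect and ±100 for the full control effect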
- Run Parameters: HEK293T RXRa-UAS-bla, beta-lactamase ratio, antagonist mode
Inconclusive results are not listed.
Readout Label: max response (%)

compound=O=C1CCc2ccccc2O1 readout_label="max response" readout_unit=% value_measured=0.0036
compound=O=S(=O)(O)c1ccccc1 readout_label="max response" readout_unit=% value_measured=-0.701
compound="C=C(C)C1CC=C(C)C(O)C1 (configuration not stated)" readout_label="max response" readout_unit=% value_measured=5.08
compound=C[Si](C)(C)O[Si](C)(C)O[Si](C)(C)C readout_label="max response" readout_unit=% value_measured=-6.04
compound=O=C(O)c1ccccc1 readout_label="max response" readout_unit=% value_measured=-3.53
compound=CN(C)CCCCCCN(C)C readout_label="max response" readout_unit=% value_measured=23.1
compound=CCCCCCCCOC(=O)c1cc(O)c(O)c(O)c1 readout_label="max response" readout_unit=% value_measured=-18.9
compound=c1ccc2scnc2c1 readout_label="max response" readout_unit=% value_measured=-2.82
compound=CCO readout_label="max response" readout_unit=% value_measured=-6.86
compound=COc1c2ccoc2cc2oc(=O)ccc12 readout_label="max response" readout_unit=% value_measured=23.4
compound=C1OCOCO1 readout_label="max response" readout_unit=% value_measured=38.1
compound="C=CC(C)(CCC=C(C)C)OC(C)=O (configuration not stated)" readout_label="max response" readout_unit=% value_measured=-7.97
compound="NC1=NC(S)C2N=CN=C2N1 (configuration not stated)" readout_label="max response" readout_unit=% value_measured=2.23
compound=COc1ccc(/C=C/c2cc(OC)cc(=O)o2)cc1 readout_label="max response" readout_unit=% value_measured=-3.53
compound=O[C@@H]([C@H](O)[C@@H](O)CBr)[C@@H](O)CBr readout_label="max response" readout_unit=% value_measured=12.2
compound=C=Cc1ccccc1Cl readout_label="max response" readout_unit=% value_measured=-6.96
compound=O=C(O)c1ccc(O)cc1O readout_label="max response" readout_unit=% value_measured=1.87

FYI, the data here is from PubChem BioAssay (NCATS).
